# System: LOX IMVI melanoma
# Method description: NCI-60 one-dose screen, 48 h
# Assay conditions: 10 µM unless noted
Compounds without any hit were thinned out: in the full panel of roughly 83,000, 20% have a hit. Calls of active or inactive are those of the source. Rule for the calls: active = growth percent below 10; inactive = the rest.
Pick one and only one: 1 (active), 0 (inactive)

Example entries begin here.
Dear all, I need the recorded test outcome for COc1ncnc2c(-c3ccccc3)cn(COCc3ccccc3)c12 , thank you.
0

And what about the compound O=C1/C(=C/c2cccc(OCc3ccccc3)c2)Oc2cc(OCCN3CCCCC3)ccc21 ?
0

And what about the compound CCCCCC1CCCCN1C(=O)OCCCC (stereo unspecified) ?
0

And what about the compound CC(C)c1ccc(C(=O)Nc2nc3ccc(O)cc3s2)cc1 ?
1

Continuing:
Dear all, I need the recorded test outcome for Cc1ccc(-n2nc3n(/c2=N\C(=O)NS(=O)(=O)c2ccc(C)cc2)CCN3C2=NCCN2)cc1 , thank you.
0

And what about the compound CC(=O)OC[C@]12CC[C@@H](C(=O)CBr)[C@@H]1[C@H]1CC[C@@H]3[C@@]4(C)CCCNC(C)(C)[C@@H]4CC[C@@]3(C)[C@]1(C)CC2 ?
1

And what about the compound CC(C)CCSc1nc(N)nc2nc[nH]c12 ?
0

And what about the compound CCCCOC(=O)c1cccc([N+](=O)[O-])c1 ?
0

And what about the compound O=C(CSc1nccc(Nc2ccc(S(=O)(=O)Nc3ccccn3)cc2)n1)c1ccc(Cl)cc1 ?
0

And what about the compound COc1ccc(C(=O)CCC(=O)O)cc1 ?
0

And what about the compound Cc1cc(NN=C(c2ccc(O)cc2)c2ccc(O)cc2)c([N+](=O)[O-])cc1[N+](=O)[O-] ?
0
